Readings of %Inh for the listed compounds
Test system: PKMYT1
conditions: concentration: 1 μM, replicates: in singlicate; n = 1;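 further: KINOMEscan kinase panel screen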
parameter: %Inh

compound="COc1cccc(C2=C(N(C)c3ccccc3)C(=O)NC2=O)c1 [SB-334865]" study_target=PKMYT1 observed_result=1%
compound="Nc1nc(N)c2nc(-c3ccccc3)[nH]c2n1 [SKF-12778]" study_target=PKMYT1 observed_result=2%
compound="Cc1nn2c(=O)cc(N3CCOCC3)nc2n1Cc1cccc(Cl)c1Cl [GSK2342769]" study_target=PKMYT1 observed_result=1%
compound="COc1cc2nccc(Nc3cccc(Oc4ccccc4)c3)c2cc1OC.Cl [GW284543]" study_target=PKMYT1 observed_result=0%
compound="O=C(Nc1n[nH]c2cc(-c3ccccc3F)ccc12)C1CC1 [SB-733371]" study_target=PKMYT1 observed_result=0%
compound="CCn1c(-c2nonc2N)nc2ccccc21 [SB-693162/GW549034]" study_target=PKMYT1 observed_result=0%
compound="COc1cc2ncn(-c3cc(OCc4ccncc4)c(C(N)=O)s3)c2cc1OC [GSK336313]" study_target=PKMYT1 observed_result=0%
compound=COC(=O)c1c(-c2ccccc2)c2cc(Br)ccc2c(=O)n1Cc1ccc(NC(=O)CCC(=O)O)cc1 study_target=PKMYT1 observed_result=10%
compound="COc1cc2ncn(-c3cc(OCCCc4ccccc4)c(C(N)=O)s3)c2cc1OC [GSK205189]" study_target=PKMYT1 observed_result=0%

---

System: RPS6KA4(Kin.Dom.1-N-terminal)
conditions: concentration: 1 μM, replicates: in singlicate; n = 1
parameter: %Inh (%)

compound=COc1cc2nccc(Nc3ccc(OCc4ccc(NC(C)=O)cc4)cc3)c2cc1OC.Cl measurement_unit=% observed_result=0
compound="CCS(=O)c1ccc(-c2coc3ccc(-c4nnc(C)o4)cc23)cc1 (stereo not drawn)" measurement_unit=% observed_result=24
compound=OCCCNc1nccc(-c2c(-c3cccc(C(F)(F)F)c3)nn3cc(C(F)(F)F)ccc23)n1 measurement_unit=% observed_result=0

---

System: MLCK
Construct: gene MYLK3
conditions: concentration: 1 μM, replicates: in singlicate; n = 1
parameter: %Inh (%)

compound=CCn1c(-c2nonc2N)nc2ccccc21 parameter=%Inh observed_result=2
compound="COc1cc(Nc2nccc(N3CCC(NC(=O)C(C)c4ccc(Cl)cc4)C3)n2)cc(OC)c1OC (centres unmarked)" parameter=%Inh observed_result=0
compound=Nc1ncnc2c1ncn2-c1cccc2ccccc12 parameter=%Inh observed_result=0
compound=O=C(Nc1n[nH]c2cc(-c3ccccc3F)ccc12)C1CC1 parameter=%Inh observed_result=29
compound=Cc1cc(Nc2nc(-c3cccc(C)n3)nc3ccccc23)ccn1 parameter=%Inh observed_result=0
compound=Cc1cccc(-c2nc(Nc3ccc4c(cnn4C)c3)c3ccccc3n2)n1 parameter=%Inh observed_result=28
compound=COc1cc2ncn(-c3cc(OCc4ccncc4)c(C(N)=O)s3)c2cc1OC parameter=%Inh observed_result=0
compound=COc1cccc(-n2cnc3c(N)ncnc32)c1 parameter=%Inh observed_result=5

---

Tested on: PFTAIRE2
conditions: concentration: 1 μM, replicates: in singlicate; n = 1
%Inh vs 1%: at or above is YES, below is NO.

molecule=O=C1NC(=O)C(c2ccccc2)=C1Nc1cccc(O)c1 study_target=PFTAIRE2 category=YES
molecule=O=C(Nc1ccc2c(c1)OCO2)NC1CCN(c2ccnc(NCc3ccc(F)cc3)n2)CC1 study_target=PFTAIRE2 category=YES
molecule=COC(=O)c1c(-c2ccccc2)c2cc(C)ccc2c(=O)n1Cc1ccccc1 study_target=PFTAIRE2 category=NO
molecule=C[C@@H]1CC[C@H](C(=O)NC2CCCCC2)CN1c1cc(-c2ccc3c(N)n[nH]c3c2)nc(N)n1 study_target=PFTAIRE2 category=YES
molecule=CN1C(=O)C(Nc2ccccc2)=C(c2ccccc2)C1=O study_target=PFTAIRE2 category=NO
molecule=COc1cc2nccc(Nc3cccc(Oc4ccccc4)c3)c2cc1OC.Cl study_target=PFTAIRE2 category=YES
molecule=CCC(=O)c1c(-c2ccccc2)c2cc(Cl)ccc2c(=O)n1Cc1ccc(C(=O)O)cc1 study_target=PFTAIRE2 category=NO
molecule="COc1cc(Nc2nccc(N3CCC(NC(=O)C(C)c4ccc(Cl)cc4)C3)n2)cc(OC)c1OC (stereo not shown)" study_target=PFTAIRE2 category=YES
molecule=Cl.c1ccc(Cn2cnc3cc(Nc4ncnc5ccccc45)ccc32)cc1 study_target=PFTAIRE2 category=YES

---

Test system: RSK1(Kin.Dom.2-C-terminal)
Construct: gene RPS6KA1
conditions: concentration: 1 μM, replicates: in singlicate; n = 1
parameter: %Inh

compound="COc1cc2nccc(Nc3cccc(Oc4ccccc4)c3)c2cc1OC.Cl [GW284543]" parameter=%Inh observed_result=0%
compound="Cc1ccccc1COc1cc(-n2cnc3cc(Cl)ccc32)sc1C(N)=O [GW813349]" parameter=%Inh observed_result=0%
compound="CCn1c(-c2ccoc2)nc2cnccc21 [SB-733887]" parameter=%Inh observed_result=4%

---

Test system: PLK3
conditions: concentration: 1 μM, replicates: in singlicate; n = 1
parameter: %Inh (%)

compound="CN1C(=O)C(Nc2ccccc2)=C(c2ccccc2)C1=O [SB-300079]" parameter=%Inh observed_result=16
compound=CCc1ccc(-c2ccc3c(c2)-c2nn(C)cc2S(=O)(=O)N3C)cc1 parameter=%Inh observed_result=56
compound="COc1ccc(CNC(=O)NC2CCN(c3ccnc(Nc4ccc(F)cc4)n3)C2)cc1 (stereo not shown) [GSK1379706]" parameter=%Inh observed_result=0
compound=CCC(=O)c1c(-c2ccccc2)c2cc(Cl)ccc2c(=O)n1Cc1cc(S(C)(=O)=O)n(CCC(C)(C)O)n1 parameter=%Inh observed_result=8
compound="O=C(NCCNc1ccnc(Nc2ccc(F)cc2)n1)Nc1ccc2c(c1)OCO2 [GSK1379882]" parameter=%Inh observed_result=0
compound="Cl.NS(=O)(=O)c1cccc(Nc2cc(-c3ccc(F)cc3)n[nH]2)c1 [GW824645]" parameter=%Inh observed_result=23
compound=Cc1ccc(Oc2ccc(Nc3ncnc4cc[nH]c34)cc2C)cn1 parameter=%Inh observed_result=11
compound=CCC(=O)c1c(-c2ccccc2)c2cc(Cl)ccc2c(=O)n1Cc1ccc(C(=O)O)cc1 parameter=%Inh observed_result=0
compound="CCn1c(-c2nonc2N)nc2ccccc21 [SB-693162/GW549034]" parameter=%Inh observed_result=34
compound=Cn1c(=O)c(F)c(Nc2ccc(I)cc2F)c2c(=O)n(OC[C@H](O)CO)cnc21 parameter=%Inh observed_result=0
compound="COc1cc(Nc2nccc(N3CCC(NC(=O)C4COc5ccccc5O4)C3)n2)cc(OC)c1OC (stereo not shown) [GSK1379761]" parameter=%Inh observed_result=0
compound="COc1cc2nccc(Nc3cccc(Oc4ccccc4)c3)c2cc1OC.Cl [GW284543]" parameter=%Inh observed_result=0
compound="Nc1ncnc2c1ncn2-c1ccc(Cl)cc1 [AH2635]" parameter=%Inh observed_result=0

---

System: SgK110
conditions: concentration: 1 μM, replicates: in singlicate; n = 1
parameter: %Inh (%)

compound="CCS(=O)c1ccc(-c2coc3ccc(-c4nnc(C)o4)cc23)cc1 (stereo not shown)" observed_result=5
compound="Cc1cccc(-c2cc(-c3c[nH]nc3-c3ccccn3)ccn2)c1 [GW679395]" observed_result=64
compound="Cc1cccc(-c2nc(Nc3ccc4c(cnn4C)c3)c3ccccc3n2)n1 [GW876731]" observed_result=6
compound="CN1C(=O)C(Nc2ccccc2)=C(c2ccccc2)C1=O [SB-300079]" observed_result=0
compound=COc1ccc(-c2coc3ccc(-c4nnc(SCc5cccc(C#N)c5)o4)cc23)cc1 observed_result=10
compound="O=c1cc(N2CCOCC2)nc2n(Cc3ccc(F)c(Cl)c3)ccn12 [GSK2297099]" observed_result=8
compound="Cc1cc(Nc2nc(-c3cccc(C)n3)nc3ccccc23)ccn1 [GW872411]" observed_result=0
compound="CCS(=O)(=O)c1ccc(OC)c(Nc2ncc(-c3ccc(F)cc3)o2)c1.Cl [GW591947]" observed_result=0
compound="COc1cc(Nc2nccc(N3CCC(NC(=O)C(C)c4ccc(Cl)cc4)C3)n2)cc(OC)c1OC (stereo not shown) [GSK1379757]" observed_result=0
compound="Nc1n[nH]c2nnc(-c3ccccc3)c(-c3ccccc3)c12 [GW554060]" observed_result=0

---

System: SGK
conditions: concentration: 1 μM, replicates: in singlicate; n = 1
%Inh overview
parameter: %Inh

mol_smiles=CN(C)c1cc(-c2ccc3c(N)n[nH]c3c2)nc(N)n1 parameter=%Inh observed_result=5%
mol_smiles=FC(F)(F)c1ccc(-c2ncn(CCCN3CCOCC3)c2-c2ccncc2)cc1 parameter=%Inh observed_result=5%
mol_smiles=O=C(Nc1n[nH]c2nc(-c3ccccc3)c(Br)cc12)C1CC1 parameter=%Inh observed_result=5%
